# measurement_target: endogenous CGRP receptor (Homo sapiens, UniProt O60894+Q16602)
# Sequence (Q16602 23-461): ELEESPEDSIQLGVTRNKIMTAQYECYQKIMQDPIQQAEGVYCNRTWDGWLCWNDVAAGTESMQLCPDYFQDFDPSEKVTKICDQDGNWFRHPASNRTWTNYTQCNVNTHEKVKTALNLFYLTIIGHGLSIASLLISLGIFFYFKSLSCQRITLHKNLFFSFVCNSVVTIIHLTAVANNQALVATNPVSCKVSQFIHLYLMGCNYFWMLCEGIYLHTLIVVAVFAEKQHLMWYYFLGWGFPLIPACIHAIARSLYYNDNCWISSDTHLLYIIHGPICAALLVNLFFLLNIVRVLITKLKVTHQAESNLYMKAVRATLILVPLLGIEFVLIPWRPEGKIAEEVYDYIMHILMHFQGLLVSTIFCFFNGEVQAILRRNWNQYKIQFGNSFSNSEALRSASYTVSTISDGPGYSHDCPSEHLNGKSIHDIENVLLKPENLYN
# Sequence (O60894 27-148): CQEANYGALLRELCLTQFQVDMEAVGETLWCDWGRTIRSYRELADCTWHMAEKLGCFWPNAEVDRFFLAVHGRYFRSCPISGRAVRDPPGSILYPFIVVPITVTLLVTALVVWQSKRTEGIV
# method_notes: CGRP functional antagonism using SK-N-MC-BLA (4C10), β-lactamase transcriptional reporter assay
# test_parameters: SK-N-MC (4C10) cells, inhibition of β-lactamase expression in the presence of 200 pM CGRP
Assign IC50 to each entry below.

[Q] Using known records, supply IC50 for CCCCCCCC1SC(CC(=O)N2CCC(N3Cc4ccccc4NC3=O)CC2)C(=O)N1CCC(C)C (stereo not drawn)
[A] > 5000 nM

[Q] Using known records, supply IC50 for CC(C)(C)CCN1C(=O)C(CC(=O)N2CCC(N3Cc4ccccc4NC3=O)CC2)SC1c1ccccc1-n1cccn1 (stereo not drawn)
[A] < 1000 nM

[Q] Using known records, supply IC50 for CC(C)CCN1C(=O)C(CC(=O)N2CCC(N3Cc4ccccc4NC3=O)CC2)SC1c1cccc(C(F)(F)F)c1F (stereo not drawn)
[A] 1000 to 5000 nM

[Q] Using known records, supply IC50 for Cc1cc(C2SC(CC(=O)N3CCC(N4CCc5ccccc5NC4=O)CC3)C(=O)N2CC2CCCCC2)cc2cn[nH]c12 (stereo not drawn)
[A] < 1000 nM

[Q] Using known records, supply IC50 for CC(C)(C)CCN1C(=O)[C@H](CC(=O)N2CCC(N3Cc4ccccc4NC3=O)CC2)SC1c1cccc(F)c1N1CCC(N)C1 (stereo partly drawn)
[A] 1000 to 5000 nM

[Q] Using known records, supply IC50 for CC(C)(C)CCN1C(=O)[C@H](CC(=O)N2CCC(n3c(=O)[nH]c4ncccc43)CC2)SC1c1cccc(F)c1N1CCC(c2ccncc2)CC1 (stereo partly drawn)
[A] < 1000 nM

[Q] Using known records, supply IC50 for O=C(CC1SC(C2CCCCC2)N(c2ccccc2)C1=O)N1CCC(n2c(=O)[nH]c3ncccc32)CC1 (stereo not drawn)
[A] < 1000 nM

[Q] Using known records, supply IC50 for CCCCN1CCN(c2ccccc2C2SC(CC(=O)N3CCC(N4Cc5ccccc5NC4=O)CC3)C(=O)N2CCC(C)(C)C)CC1 (stereo not drawn)
[A] > 5000 nM

[Q] Using known records, supply IC50 for CC(C)CCN1C(=O)C(CC(=O)N2CCC(N3CCc4ccccc4NC3=O)CC2)SC1c1ccccc1N(C)C (stereo not drawn)
[A] < 1000 nM

* * *

# measurement_target: endogenous CGRP receptor (Homo sapiens, UniProt O60894+Q16602)
# method_notes: CGRP functional antagonism using SK-N-MC-BLA (4C10), β-lactamase transcriptional reporter assay
# Format: cell-based
# test_parameters: SK-N-MC (4C10) cells, inhibition of β-lactamase expression in the presence of 200 pM CGRP
measure: IC50

[Q] Fetch value of IC50 on endogenous CGRP receptor (Homo sapiens, UniProt O60894+Q16602) for Cc1c(F)cccc1C1SC(CC(=O)N2CCC(N3CCc4ccccc4NC3=O)CC2)C(=O)N1CCC(C)C (stereo not drawn) .
[A] < 1 µM

[Q] Fetch value of IC50 on endogenous CGRP receptor (Homo sapiens, UniProt O60894+Q16602) for CC(C)(C)CCN1C(=O)[C@H](CC(=O)N2CCC(N3CCc4ccccc4NC3=O)CC2)SC1c1cccc(F)c1N1CCNCC1 (stereo partly drawn) [Compound 398] .
[A] > 5 µM

[Q] Fetch value of IC50 on endogenous CGRP receptor (Homo sapiens, UniProt O60894+Q16602) for CC(C)CCN1C(=O)C(CC(=O)N2CCC(n3c(=O)[nH]c4ccccc43)CC2)SC1c1ccccc1N1CCCCC1 (stereo not drawn) .
[A] 1 to 5 µM

[Q] Fetch value of IC50 on endogenous CGRP receptor (Homo sapiens, UniProt O60894+Q16602) for CC(C)CCN1C(=O)C(CC(=O)N2CCC3(CCc4ccccc43)CC2)SC1c1ccccc1 (stereo not drawn) .
[A] > 5 µM

[Q] Fetch value of IC50 on endogenous CGRP receptor (Homo sapiens, UniProt O60894+Q16602) for COc1cccc(C2SC(CC(=O)N3CCC(n4cc(-c5ccccc5)[nH]c4=O)CC3)C(=O)N2CCC(C)C)c1 (stereo not drawn) .
[A] 1 to 5 µM

[Q] Fetch value of IC50 on endogenous CGRP receptor (Homo sapiens, UniProt O60894+Q16602) for CNC1CCN(c2c(F)cccc2[C@@H]2S[C@@H](CC(=O)N3CCC(n4c(=O)[nH]c5ncccc54)CC3)C(=O)N2CCC(C)(C)C)C1 (stereo partly drawn) .
[A] < 1 µM

[Q] Fetch value of IC50 on endogenous CGRP receptor (Homo sapiens, UniProt O60894+Q16602) for O=C(CC1SC(c2ccccc2)N(C2CC2)C1=O)N1CCC(N2Cc3ccccc3NC2=O)CC1 (stereo not drawn) .
[A] > 5 µM

[Q] Fetch value of IC50 on endogenous CGRP receptor (Homo sapiens, UniProt O60894+Q16602) for CC(C)CCN1C(=O)C(CC(=O)N2CCC(N3CCc4ccccc4NC3=O)CC2)SC1c1ccc(F)cc1Cl (stereo not drawn) .
[A] < 1 µM

[Q] Fetch value of IC50 on endogenous CGRP receptor (Homo sapiens, UniProt O60894+Q16602) for CC(C)CCN1C(=O)C(CC(=O)N2CCC(n3c(=O)[nH]c4ncccc43)CC2)SC1c1ccccc1N1CCN(C)CC1 (stereo not drawn) .
[A] < 1 µM
